Catalogue of compounds with associated IC50
- measuredOn: Simian chymase (Macaca mulatta, UniProt F6SAJ2)
- Sequence (F6SAJ2 22-247 limits assumed): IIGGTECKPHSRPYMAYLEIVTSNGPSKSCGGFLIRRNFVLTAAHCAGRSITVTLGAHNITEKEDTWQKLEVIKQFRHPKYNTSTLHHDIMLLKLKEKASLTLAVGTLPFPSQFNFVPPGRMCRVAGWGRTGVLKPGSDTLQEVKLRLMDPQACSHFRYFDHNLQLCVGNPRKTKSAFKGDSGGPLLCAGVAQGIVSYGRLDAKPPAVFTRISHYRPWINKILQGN
- protocolNotes: Measurement of inhibitory activity of simian chymase (Ang I substrate, His-Leu/OPT fluorescence)
- Type: biochemical, rhesus monkey
- experimentalParameters: chymase from heart of rhesus monkey; 120 minutes at 37° C.; read-out: Simian chymase IC50 value

{"columns": ["compound", "readingUnit", "IC50"],
 "data": [
  ["CC(=O)c1ccc(NS(=O)(=O)c2sc3ccc(F)cc3c2C)c(S(C)(=O)=O)c1 [Compound 19]", "µM", 0.02],
  ["Cc1c(S(=O)(=O)Nc2ccc(-c3nc(C(=O)O)co3)cc2S(C)(=O)=O)sc2ccc(F)cc12 [Compound 24]", "µM", 0.002],
  ["COC(=O)c1coc(-c2ccc(NS(=O)(=O)c3sc4ccc(Cl)cc4c3C)c(S(C)(=O)=O)c2)n1 [Compound 25]", "µM", 0.075],
  ["COC(=O)c1ccc(NS(=O)(=O)c2sc3ccc(Cl)cc3c2C)c(S(C)(=O)=O)c1 [Compound 1]", "µM", 0.05]
]}

###

Recorded pIC50 by entry
Target chain: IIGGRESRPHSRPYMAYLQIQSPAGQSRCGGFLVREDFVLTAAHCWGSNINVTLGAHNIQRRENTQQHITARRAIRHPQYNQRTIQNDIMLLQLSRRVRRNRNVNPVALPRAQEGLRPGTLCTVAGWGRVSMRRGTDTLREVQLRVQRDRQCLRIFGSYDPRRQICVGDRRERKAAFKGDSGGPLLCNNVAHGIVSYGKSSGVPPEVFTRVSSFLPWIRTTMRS
pIC50: −log10 of the molar value.

{"columns": ["compound", "pIC50"],
 "data": [
  ["CCS(=O)(=O)c1cc(C(=O)OC)ccc1NS(=O)(=O)c1sc2ccc(Cl)cc2c1C", "< 5.00"],
  ["Cc1c(S(=O)(=O)Nc2ccc(-c3nc(C(=O)O)cs3)cc2S(C)(=O)=O)sc2ccc(F)cc12", "< 5.00"],
  ["CC(C)C[C@H](NC(=O)[C@@H](NC(=O)N[C@@H](Cc1ccccc1)C(=O)O)[C@@H]1CCN=C(N)N1)C(=O)N[C@H](C=O)Cc1ccccc1 [Chymostatin, reference compound]", 8.22],
  ["Cc1c(S(=O)(=O)Nc2ccc(-c3cnco3)cc2S(C)(=O)=O)sc2ccc(F)cc12", "< 5.00"],
  ["COC(=O)c1ccc(NS(=O)(=O)c2sc3ccc(F)cc3c2C)c(S(C)(=O)=O)c1", "< 5.00"],
  ["COC(=O)c1ccc(NS(=O)(=O)c2sc3ccc(Cl)cc3c2C)c(S(C)(=O)=O)c1", "< 5.00"]
]}
